Test system: L1210 leukemia ip in BDF1 mice, survival T/C
Test: NCI In Vivo Anticancer Drug Screen. Data for tumor model L1210 Leukemia (intraperitoneal) in B6D2F1 (BDF1) mice
Conditions: endpoint: mean survival time; dose: 100.0 mg/kg/injection; schedule: Q01DX009 (ip); vehicle: Klucel (hydroxypropylcellulose) (HPC); higher = longer survival
Toxic doses and inconclusive results are not listed.
For each of the molecules below, state its T/C.

• Cc1ccc(NC(=O)OCCN2CCNC2=S)c([N+](=O)[O-])c1 = 87 % of control

Go through the items and report each one's T/C.
1. CC1(C)OC2C(CO)OC(n3cnc4c(N)ncnc43)C2O1 (stereo unspecified)
2. CC12CCC(C1)C(C)(C)C2N1C(c2ccccc2)C1c1ccccc1 (stereo unspecified)
3. Cc1nccnc1Sc1ccc(Br)cc1
4. O=NN(c1ccccc1)c1ccc(N(N=O)c2ccccc2)cc1
5. CCOP(=S)(OCC)SCc1c(C)c(C)c(CSP(=S)(OCC)OCC)c(C)c1C
6. COc1ccc2c3c(ccc2c1)NC(C(=O)O)CC3 (stereo unspecified)
7. Cc1cc(C)c([N+](=O)[O-])c(C)c1

Output:
1. 100 % of control
2. 87 % of control
3. 113 % of control
4. 96 % of control
5. 95 % of control
6. 97 % of control
7. 104 % of control

Go through the items and report each one's T/C.
1. C=CCOCC(O)CN(C)CCCC (stereo unspecified)
2. COc1cc(CCCC(=O)O)c(OC)c(C)c1C
3. CC1=NS(=O)(=O)NC(C)(C)C1

Output:
1. 94 % of control
2. 97 % of control
3. 87 % of control

====

Test system: L1210 leukemia ip in BDF1 mice, survival T/C
Assay: NCI In Vivo Anticancer Drug Screen. Data for tumor model L1210 Leukemia (intraperitoneal) in B6D2F1 (BDF1) mice
Conditions: endpoint: mean survival time; dose: 200.0 mg/kg/injection; schedule: Q04DX003 (ip); vehicle: saline; higher = longer survival
Toxic doses and inconclusive results are not listed.
For each of the compounds below, state its T/C.

// solved cases for T/C follow
* C(C#Cc1ccccc1)#Cc1ccccc1 | 100 % of control
* OC1OC(CCl)C(Cl)C(O)C1O (stereo unspecified) | 101 % of control
* COc1ccc2c(c1)CC[C@@H]1[C@@H]2CC[C@]2(C)[C@@H](O)C(=O)C[C@@H]12 | 88 % of control
* C[N+](C)(C)CCCOC(=O)C1C2CC3OC(=O)C1C3C2 (stereo unspecified) | 96 % of control
* COc1ccc(/C=C2\N=C(c3ccccc3)OC2=O)cc1OC | 100 % of control

Input: Quote T/C with test system L1210 leukemia ip in BDF1 mice, survival T/C for `CC1(C)N=C(N)N=C(N)N1c1ccc(CN)cc1`
Output: 101 % of control

====

For each of the compounds below, state its T/C.
Tested on: L1210 leukemia ip in BDF1 mice, survival T/C
Experiment: NCI In Vivo Anticancer Drug Screen. Data for tumor model L1210 Leukemia (intraperitoneal) in B6D2F1 (BDF1) mice
Details: endpoint: mean survival time; dose: 50.0 mg/kg/injection; schedule: Q01DX009 (ip); vehicle: saline; higher = longer survival
Inconclusive results and toxic doses are left out.

* c1nc(N2CC2)c2cnn(C3CCCCO3)c2n1 (stereo unspecified) | 102 % of control
* CC(C)=CCC/C(C)=C/Cn1cnc2c(ncn2C2OC(CO)C(O)C2O)c1=O (stereo unspecified) | 92 % of control
* O=C(CCN1CCCCCCC1)c1cccc([N+](=O)[O-])c1 | 101 % of control
* O=[N+]([O-])c1ccc(C[n+]2ccccc2)cc1 | 89 % of control
* COC(=O)C(CO)NC(c1ccccc1)(c1ccccc1)c1ccccc1 (stereo unspecified) | 91 % of control

Now, please, on to the next compound.
Input: Input `S=c1cc(-c2cccs2)ss1` , output reported T/C.
Output: 107 % of control

====

System: L1210 leukemia ip in BDF1 mice, survival T/C
Experiment: NCI In Vivo Anticancer Drug Screen. Data for tumor model L1210 Leukemia (intraperitoneal) in B6D2F1 (BDF1) mice
Settings: endpoint: mean survival time; dose: 100.0 mg/kg/injection; schedule: Q04DX003 (ip); vehicle: Klucel (hydroxypropylcellulose) (HPC); higher = longer survival
Inconclusive results and toxic doses are left out.
experimental.endpoint: T/C

• CC1(CO)CC2CCC1C2 (stereo not given) = 104 % of control
• CC(C)=CCN(CC=C(C)C)CCC(C#N)c1cccc2ccccc12 (stereo not given) = 109 % of control
• CC(=O)Nc1ccc(C)c(NC(C)=O)c1 = 96 % of control

Go through the items and report each one's T/C.
1. COc1ccc2c(c1)CN(S(=O)(=O)c1ccc(C)cc1)CCC2O (stereo not given)
2. Brc1c(-c2ccccc2)cc(-c2ccccc2)cc1-c1ccccc1
3. C=CC(=O)c1c(O)cc(O)c2c1C(C)C(=O)O2 (stereo not given)

Output:
1: 96 % of control; 2: 91 % of control; 3: 106 % of control

Go through the items and report each one's T/C.
1. O=C(OC1COC(Br)C(OC(=O)c2ccccc2)C1OC(=O)c1ccccc1)c1ccccc1 (stereo not given)
2. CC(C)c1cccc(C(C)C)c1OC(=O)Nc1ccccc1Cl
3. O=C(O)CC(SC(c1ccccc1)(c1ccccc1)c1ccccc1)C(=O)O (stereo not given)
4. O=S(c1ccccc1)c1c(Cl)c(Cl)nc(Cl)c1Cl (stereo not given)
5. O=C(O)c1cccc([N+](=O)[O-])c1O
6. CCOC(=O)C1=C(C)NC(=O)NC1c1ccc(N(CCCl)CCCl)cc1 (stereo not given)
7. CCOc1ccc(OCC)c2c1C(=O)c1ccccc1C2=O

Output:
106 % of control
100 % of control
98 % of control
105 % of control
93 % of control
97 % of control
95 % of control

Go through the items and report each one's T/C.
1. CCOP(=S)(OCC)SCc1c(C)c(C)c(CSP(=S)(OCC)OCC)c(C)c1C
2. O=C1OCCN1S(=O)(=O)c1ccc(Cl)cc1
3. Nc1nc(Br)c(Br)nc1C(=O)O
4. Nc1nc(N)nc(-c2ccccc2NC(=O)c2ccccc2N)n1

Output:
1: 103 % of control; 2: 104 % of control; 3: 106 % of control; 4: 103 % of control

====

System: L1210 leukemia ip in BDF1 mice, survival T/C
Experiment: NCI In Vivo Anticancer Drug Screen. Data for tumor model L1210 Leukemia (intraperitoneal) in B6D2F1 (BDF1) mice
Settings: endpoint: mean survival time; dose: 100.0 mg/kg/injection; schedule: Q04DX003 (ip); vehicle: saline; higher = longer survival
Protocol: The antitumor activity of compounds was measured in mice bearing transplantable tumors. Survival or tumor size were measured and the results are expressed as the measurement made in the treated group (T) divided by the measurement made in the vehicle treated control group (C). The tumor model used in this assay is L1210 Leukemia (intraperitoneal) in B6D2F1 (BDF1) mice
Inconclusive results and toxic doses are left out.
experimental.endpoint: T/C

// solved cases for T/C follow
- O=[N+]([O-])c1cc(Br)ccc1O: 100 % of control
- S=c1cc(-c2cccs2)ss1: 93 % of control
- CC(=O)Nc1cccc2cccnc12: 108 % of control

Go through the items and report each one's T/C.
1. C(C#Cc1ccccc1)#Cc1ccccc1
2. CC(C)(CNCc1ccccc1)COS(=O)(=O)O
3. CS(=O)(=O)OCCN(CCOS(C)(=O)=O)c1ccc(/C=N/Nc2ccc([N+](=O)[O-])cc2[N+](=O)[O-])cc1
4. C/C(CC(c1ccccc1)N1CCc2ccccc2C1)=N/O (configuration not stated)
5. O=C1CCC(N2C(=O)C3C4c5ccccc5C(c5ccccc54)C3C2=O)C(=O)N1 (configuration not stated)
6. CS(C)=O.CS(C)=O.CS(C)=O.[Cl][Rh]([Cl])[Cl]

Output:
1: 94 % of control; 2: 102 % of control; 3: 91 % of control; 4: 105 % of control; 5: 97 % of control; 6: 96 % of control

Go through the items and report each one's T/C.
1. CC(CNc1ccc(Cl)cc1)(CNc1ccc(Cl)cc1)[N+](=O)[O-]
2. c1ccc2c(c1)[nH]c1nc3ncncc3nc12
3. COC(=O)C1(N)CCCC1

Output:
1: 92 % of control; 2: 94 % of control; 3: 102 % of control

====

For each of the compounds below, state its T/C.
Test system: L1210 leukemia ip in BDF1 mice, survival T/C
Assay: NCI In Vivo Anticancer Drug Screen. Data for tumor model L1210 Leukemia (intraperitoneal) in B6D2F1 (BDF1) mice
Conditions: endpoint: mean survival time; dose: 200.0 mg/kg/injection; schedule: Q04DX002 (ip); vehicle: saline with Tween-80; higher = longer survival
Inconclusive results and toxic doses are left out.

Go through the items and report each one's T/C.
1. O=C1OCC/C1=C\c1cccc(/C=C2\CCOC2=O)c1
2. CCOC(=O)/C(C#N)=C(\CCCCc1ccccc1)CC(C)C
3. O=[N+]([O-])C1CC(Cl)CCC1SSC1CCC(Cl)CC1[N+](=O)[O-] (centres undefined)
4. O=C(O)c1ccc[nH]1

Output:
1: 100 % of control; 2: 92 % of control; 3: 98 % of control; 4: 87 % of control

Go through the items and report each one's T/C.
1. CC1(C)CC(=O)CC(=C2C(=O)NC(=O)NC2=O)C1
2. CC/C(C)=C\CC/C(C)=C/COc1cccc(OC)c1
3. Clc1ccc2c(c1)Sc1ccc(Cl)cc1S2
4. CCOC(=O)c1cc(C)nc2ccc(Br)cc12
5. CCOC(=O)/C(C#N)=C\C1(C)CCC(C)=CO1 (centres undefined)
6. CCOC(=O)c1ccc(F)cc1
7. C#CCN(C)C(=O)Nc1ccccc1

Output:
111 % of control
101 % of control
101 % of control
108 % of control
115 % of control
115 % of control
91 % of control

Go through the items and report each one's T/C.
1. O=C(O)C(Br)C(Br)C(=O)Nc1cccc(Cl)c1 (centres undefined)
2. Clc1ccccc1C=NC1CCCCC1

Output:
1: 95 % of control; 2: 96 % of control
